Details: [M+Na]+; instrument: DT; single field, calibrated with Agilent tune mix (Agilent)
Value Kind: collision cross section (N2) (Å²)

compound="OC[C@H]1O[C@H](O)[C@H](O)[C@@H](O)[C@@H]1O [Alpha-D-Glucose]" measurement_units=Å² assay_result=146.2
compound="CCCCC[C@H](O)/C=C/[C@H]1[C@H](O)CC(=O)[C@@H]1C/C=C\\CCCC(=O)O [Prostaglandin E2]" measurement_units=Å² assay_result=196.8
compound="NC(=O)NCCC(=O)O [3-Ureidopropionate]" measurement_units=Å² assay_result=132.3
compound="CC(=O)N[C@@H](CC(=O)O)C(=O)O [N-Acetyl-L-aspartic acid]" measurement_units=Å² assay_result=139
compound="OC[C@H]1O[C@H](O[C@H]2O[C@H](CO)[C@@H](O)[C@H](O)[C@H]2O)[C@H](O)[C@@H](O)[C@@H]1O [Trehalose]" measurement_units=Å² assay_result=174.9
compound="CCCCC[C@H](O)/C=C/[C@H]1C(=O)C[C@H](O)[C@@H]1C/C=C\\CCCC(=O)O [Prostaglandin D2]" measurement_units=Å² assay_result=192.4
compound="O=C(CO)[C@@H](O)[C@H](O)[C@H](O)COP(=O)(O)O [D-Fructose-6-phosphate]" measurement_units=Å² assay_result=154.2
compound="O=C(O)[C@H]1OC(O)[C@H](O)[C@@H](O)[C@H]1O (stereo partly drawn) [D-galacturonic acid]" measurement_units=Å² assay_result=143.7
compound="O=c1ccn([C@H]2C[C@H](O)[C@@H](CO)O2)c(=O)[nH]1 [2'-Deoxyuridine]" measurement_units=Å² assay_result=156
compound="OC1OC[C@@H](O)[C@@H](O)[C@H]1O (stereo partly drawn) [D-Ribose]" measurement_units=Å² assay_result=135.3

###

Conditions: [M+K]+; instrument: DT; stepped-field
Measured collision cross section (N2) values are reported for all entries that follow.
Value Kind: collision cross section (N2) (Å²)

molecule="CCCCC/C=C\\C/C=C\\C/C=C\\CCCCC(=O)OC[C@H](COP(=O)(O)OC[C@H](N)C(=O)O)OC(=O)CCCCCCCCC/C=C\\CCCCCCCCCC [PS(40:04)]" assay_result=295.44
molecule="CC/C=C\\C/C=C\\C/C=C\\C/C=C\\CCCCC(=O)O[C@H](COC(=O)CCCCCCCCCCCCCCCCCCC)COP(=O)(O)OCCN [PE(38:04)]" assay_result=284.45
molecule="CCCCC/C=C\\C=C/CCCCCCCCC(=O)O[C@H](COC(=O)CCCCCCCCCCCCCCCCC)COP(=O)([O-])OCC[N+](C)(C)C [PC(36:02)]" assay_result=289.17
molecule="CCCCC/C=C\\C/C=C\\C/C=C\\C/C=C\\CCCC(=O)O[C@H](COC(=O)CCCCCCCCC/C=C\\CCCCCCCC)COP(=O)(O)OC[C@H](N)C(=O)O [PS(40:05)]" assay_result=294.22
molecule="CCCCCCCC/C=C\\CCCCCCCC(=O)OC[C@H](COP(=O)(O)OC[C@H](N)C(=O)O)OC(=O)CCCCCCC/C=C\\CCCCCCCC [PS(36:02)]" assay_result=285.23

###

Measured collision cross section (N2), listed per entry for reference.
Settings: [M+H]+; instrument: TW; calibrated with phosphatidylcholines (ESI+) and phosphatidylethanolamines (ESI-), doubly charged cardiolipins calibrated with poly-DL-…
Value Kind: collision cross section (N2) (Å²)

molecule="CCCCCCCCCCCCCCCC(=O)OCC(COP(=O)(O)OCCN)OC(=O)CCCCCCCCCCCCCC (centres undefined)" value_kind="collision cross section (N2)" assay_result=269.25
molecule="CCCCCC/C=C\\CCCCCCCC(=O)OCC(COP(=O)(O)OCCN)OC(=O)CCCCCCC/C=C\\CCCCCCCC (centres undefined)" value_kind="collision cross section (N2)" assay_result=271.97
molecule="CCCCCCCCCCCCCCCC(=O)OCC(COP(=O)(O)OCCN)OC(=O)CCCCCCCCCCCCC (centres undefined)" value_kind="collision cross section (N2)" assay_result=265.85
molecule="CCCCCCCC/C=C\\CCCCCCCC(=O)OCC(COP(=O)(O)OCCN)OC(=O)CCCCCCC/C=C\\CCCCCCCC (centres undefined)" value_kind="collision cross section (N2)" assay_result=276.82
molecule=CCCCCC/C=C/CCCCCCCC(=O)OC[C@@H](O)COP(=O)([O-])OCC[NH3+] value_kind="collision cross section (N2)" assay_result=206.28
molecule="CCCCCC/C=C\\CCCCCCCC(=O)OCC(COP(=O)(O)OCCN)OC(=O)CCCCCCCCCCCCC (centres undefined)" value_kind="collision cross section (N2)" assay_result=260.6
molecule="CCCCCCCCC1CC1CCCCCCCC(=O)O[C@H](CO)COP(=O)([O-])OCC[NH3+] (some centres undefined)" value_kind="collision cross section (N2)" assay_result=221.32
molecule="CCCCCCC1CC1CCCCCCCC(=O)O[C@H](CO)COP(=O)([O-])OCC[NH3+] (some centres undefined)" value_kind="collision cross section (N2)" assay_result=214.85
molecule="CCCCCCCCCCCCCCCC(=O)OCC(COP(=O)(O)OCCN)OC(=O)CCCCCCCC1CC1CCCCCC (centres undefined)" value_kind="collision cross section (N2)" assay_result=273.6

###

Consider the following compounds and their measured collision cross section (N2) readings.
Settings: [M+H]+; instrument: DT; single field, calibrated with Agilent tune mix (Agilent)
Value Kind: collision cross section (N2) (Å²)

compound="CCCCC/C=C\\C/C=C\\C/C=C\\C/C=C\\CCCCCC(=O)O[C@H](COC(=O)CCCCCCC/C=C\\C/C=C\\CCCCC)COP(=O)([O-])OCC[N+](C)(C)C [PC(40:6)]" assay_result=296.2
compound="CCCCCCCCCCCCCCCCCCCC(=O)O[C@H](COC(=O)CCCCCCCCCCC)COP(=O)(O)OCCN [PE(32:0)]" assay_result=271.4
compound="CCCCC/C=C\\C/C=C\\CCCCCCCC(=O)O[C@H](CO/C=C\\CCCCCCCCCCCCCC)COP(=O)(O)OCCN [PE(p34:2)]" assay_result=270

###

Conditions: [M+NH4]+; instrument: TW; calibrated with phosphatidylcholines (ESI+) and phosphatidylethanolamines (ESI-)
Value Kind: collision cross section (N2) (Å²)

compound="CC/C=C\\C/C=C\\C/C=C\\CCCCCCCC(=O)OC[C@H](CO[C@@H]1O[C@H](CO)[C@H](O)C(O)C1O)OC(=O)CCCCC/C=C\\CCCCCCCC (stereo not given in full)" value_kind="collision cross section (N2)" measurement_units=Å² assay_result=281.2
compound="CCCCCCCCCCCCCCCCCC(=O)OC[C@H](CO[C@@H]1O[C@H](CO[C@H]2O[C@H](CO)[C@H](O)C(O)C2O)[C@H](O)C(O)C1O)OC(=O)CCCCCCCCCCCCCCCCC (stereo not given in full)" value_kind="collision cross section (N2)" measurement_units=Å² assay_result=326.8
compound="CCCCCCCCCCCC=CCC(=O)OC[C@H](CO[C@@H]1O[C@H](CO[C@H]2O[C@H](CO)[C@H](O)C(O)C2O)[C@H](O)C(O)C1O)OC(=O)CC=CCCCCCCCCCCC (stereo not given in full)" value_kind="collision cross section (N2)" measurement_units=Å² assay_result=295.4
compound="CCCCCCCCCCCCCCCC(=O)OC[C@H](CO[C@@H]1O[C@H](CO[C@H]2O[C@H](CO)[C@H](O)C(O)C2O)[C@H](O)C(O)C1O)OC(=O)CCCCCCCCCCCCCCC (stereo not given in full)" value_kind="collision cross section (N2)" measurement_units=Å² assay_result=308.5
compound="CC/C=C\\C/C=C\\C/C=C\\CCCCCCCC(=O)OC[C@H](CO[C@@H]1O[C@H](CO)[C@H](O)C(O)C1O)OC(=O)CCCCCCC/C=C\\C/C=C\\C/C=C\\CC (stereo not given in full)" value_kind="collision cross section (N2)" measurement_units=Å² assay_result=284.1

###

Conditions: [M+H]+; instrument: TW; calibrated with polyalanine and drug standards
Structures can show the parent of a compound that is named as a salt.
Reported collision cross section (N2) by item:
Value Kind: collision cross section (N2) (Å²)

compound=COc1cccc(O)c1O value_kind="collision cross section (N2)" assay_result=124.7
compound="COc1cc(O)c(C)c(O)c1 [2,6-DIHYDROXY-4-METHOXYTOLUENE]" value_kind="collision cross section (N2)" assay_result=127.1
compound=CC(=O)[C@H]1CC[C@H]2[C@@H]3C[C@H](C)C4=CC(=O)CC[C@]4(C)[C@H]3[C@@H](O)C[C@]12C value_kind="collision cross section (N2)" assay_result=183.2
compound=O=c1cc(-c2ccc(O)cc2)oc2cc(O[C@@H]3O[C@H](CO)[C@@H](O)[C@H](O)[C@H]3O[C@@H]3OC[C@](O)(CO)[C@H]3O)cc(O)c12 value_kind="collision cross section (N2)" assay_result=229.3
compound="CC(=O)c1ccc(S(=O)(=O)NC(=O)NC2CCCCC2)cc1 [ACETOHEXAMIDE]" value_kind="collision cross section (N2)" assay_result=178.2
compound=Nc1nc(N)c2nc(-c3ccccc3)c(N)nc2n1 value_kind="collision cross section (N2)" assay_result=155.4
compound=OCCN(CCO)c1nc(N2CCCCC2)c2nc(N(CCO)CCO)nc(N3CCCCC3)c2n1 value_kind="collision cross section (N2)" assay_result=223.9
compound=CCN(CC)CCOc1ccc2c(c1)C(=O)c1cc(OCCN(CC)CC)ccc1-2 value_kind="collision cross section (N2)" assay_result=219.8
compound="NC(Cc1ccc(F)cc1)C(=O)O (configuration not stated)" value_kind="collision cross section (N2)" assay_result=141.1
compound=CN1CCN(CC/C=C2/c3ccccc3Sc3ccc(S(=O)(=O)N(C)C)cc32)CC1 value_kind="collision cross section (N2)" assay_result=201.9
compound=CC(C)=CCC/C(C)=C/COc1ccc2ccc(=O)oc2c1 value_kind="collision cross section (N2)" assay_result=158.3
compound=COc1c(OC)c2occc2c2oc(=O)ccc12 value_kind="collision cross section (N2)" assay_result=146.4
compound=NC1=NCCN1CC(=O)O value_kind="collision cross section (N2)" assay_result=124.3
compound="CN1C2C[C@H](OC(=O)[C@H](CO)c3ccccc3)C[C@H]1[C@@H](O)C2 [ANISODAMINE HYDROBROMIDE]" value_kind="collision cross section (N2)" assay_result=171.1
compound=CC(=O)Nc1ccc(S(=O)(=O)c2ccc(NC(C)=O)cc2)cc1 value_kind="collision cross section (N2)" assay_result=171.2
compound=COc1ccc(C(=O)/C=C/c2ccccc2)cc1 value_kind="collision cross section (N2)" assay_result=153.8
compound="COc1ccc2c(c1)OCC(Cc1ccc(OC)c(O)c1)C2=O (configuration not stated)" value_kind="collision cross section (N2)" assay_result=170.6
